System: SW480
Assay: Anticancer activity against human SW480 cells after 48 hrs by MTT assay
Format: functional, cell-based
Details: SW480, 48 h
Could you please mark Condition met for values of IC50 below 2 µM and Condition not met for values at or above it?

CCCC(=O)O[C@@H]1[C@@H](O[C@@H]2c3cc4c(cc3[C@@H](c3cc(OC)c(O)c(OC)c3)[C@H]3C(=O)OC[C@@H]32)OCO4)OC[C@@H](OC(=O)CCC)[C@@H]1OC(=O)CCC; Condition not met

[in] Is it true that IC50 reported for CCCC(=O)OC[C@H]1O[C@@H](O[C@H]2[C@H](OC(=O)CCC)[C@@H](OC(=O)CCC)[C@@H](O[C@@H]3c4cc5c(cc4[C@@H](c4cc(OC)c(OC)c(OC)c4)[C@H]4C(=O)OC[C@@H]43)OCO5)O[C@@H]2COC(=O)CCC)[C@H](OC(=O)CCC)[C@@H](OC(=O)CCC)[C@H]1OC(=O)CCC is less than 2 µM?
[out] Condition not met

[in] Is it true that IC50 reported for CCCC(=O)O[C@@H]1[C@@H](OC(=O)CCC)[C@H](C)O[C@@H](O[C@@H]2c3cc4c(cc3[C@@H](c3cc(OC)c(OC)c(OC)c3)[C@H]3C(=O)OC[C@@H]32)OCO4)[C@@H]1OC(=O)CCC is less than 2 µM?
[out] Condition not met

[in] Is it true that IC50 reported for CCCC(=O)OC[C@H]1O[C@H](O[C@H]2[C@H](OC(=O)CCC)[C@@H](OC(=O)CCC)[C@@H](O[C@@H]3c4cc5c(cc4[C@@H](c4cc(OC)c(O)c(OC)c4)[C@H]4C(=O)OC[C@@H]43)OCO5)O[C@@H]2COC(=O)CCC)[C@H](OC(=O)CCC)[C@@H](OC(=O)CCC)[C@@H]1OC(=O)CCC is less than 2 µM?
[out] Condition not met

[in] Is it true that IC50 reported for COc1cc([C@@H]2c3cc4c(cc3[C@@H](O[C@@H]3O[C@@H]5CO[C@@H](C)O[C@H]5[C@H](O)[C@H]3O)[C@H]3COC(=O)[C@H]23)OCO4)cc(OC)c1O [ETOPOSIDE] is less than 2 µM?
[out] Condition not met

[in] Is it true that IC50 reported for CCCC(=O)OC[C@H]1O[C@H](O[C@@H]2c3cc4c(cc3[C@@H](c3cc(OC)c(OC)c(OC)c3)[C@H]3C(=O)OC[C@@H]32)OCO4)[C@@H](OC(=O)CCC)[C@@H](OC(=O)CCC)[C@@H]1OC(=O)CCC is less than 2 µM?
[out] Condition not met

[in] Is it true that IC50 reported for CCCC(=O)OC[C@H]1O[C@H](O[C@@H]2c3cc4c(cc3[C@@H](c3cc(OC)c(O)c(OC)c3)[C@H]3C(=O)OC[C@@H]32)OCO4)[C@H](OC(=O)CCC)[C@@H](OC(=O)CCC)[C@@H]1OC(=O)CCC is less than 2 µM?
[out] Condition not met

[in] Is it true that IC50 reported for CCCC(=O)OC[C@H]1O[C@H](O[C@@H]2c3cc4c(cc3[C@@H](c3cc(OC)c(OC)c(OC)c3)[C@H]3C(=O)OC[C@@H]32)OCO4)[C@H](OC(=O)CCC)[C@@H](OC(=O)CCC)[C@H]1OC(=O)CCC is less than 2 µM?
[out] Condition met

[in] Is it true that IC50 reported for CCCC(=O)OC[C@H]1O[C@H](O[C@H]2[C@H](OC(=O)CCC)[C@@H](OC(=O)CCC)[C@@H](O[C@@H]3c4cc5c(cc4[C@@H](c4cc(OC)c(OC)c(OC)c4)[C@H]4C(=O)OC[C@@H]43)OCO5)O[C@@H]2COC(=O)CCC)[C@H](OC(=O)CCC)[C@@H](OC(=O)CCC)[C@@H]1OC(=O)CCC is less than 2 µM?
[out] Condition not met

[in] Is it true that IC50 reported for CCCC(=O)OC[C@H]1O[C@H](O[C@@H]2c3cc4c(cc3[C@@H](c3cc(OC)c(O)c(OC)c3)[C@H]3C(=O)OC[C@@H]32)OCO4)[C@@H](OC(=O)CCC)[C@@H](OC(=O)CCC)[C@@H]1OC(=O)CCC is less than 2 µM?
[out] Condition not met

====

System: SW480
Assay: Anticancer activity against human SW480 cells after 48 hrs by MTT assay
Assay type: functional, cell-based
Conditions: SW480, 48 h
Hi there, I'd appreciate the recorded IC50 for every entry that follows.
One number for each entry, in µM.

These solved cases illustrate the format of a correct answer.
CCCC(=O)OC[C@H]1O[C@@H](O[C@@H]2c3cc4c(cc3[C@@H](c3cc(OC)c(OC)c(OC)c3)[C@H]3C(=O)OC[C@@H]32)OCO4)[C@H](OC(=O)CCC)[C@@H](OC(=O)CCC)[C@@H]1OC(=O)CCC; 1.26
CCCC(=O)OC[C@H]1O[C@H](O[C@@H]2c3cc4c(cc3[C@@H](c3cc(OC)c(O)c(OC)c3)[C@H]3C(=O)OC[C@@H]32)OCO4)[C@H](OC(=O)CCC)[C@@H](OC(=O)CCC)[C@H]1OC(=O)CCC; 10.7

Next:
[in] Tell me measured IC50 for CCCC(=O)O[C@@H]1[C@@H](O[C@@H]2c3cc4c(cc3[C@@H](c3cc(OC)c(OC)c(OC)c3)[C@H]3C(=O)OC[C@@H]32)OCO4)OC[C@@H](OC(=O)CCC)[C@@H]1OC(=O)CCC please.
[out] 1.11
